- subject-of-test: Virion infectivity factor (Human immunodeficiency virus type 1 group M subtype B (isolate BH10)) + Virion infectivity factor (Human immunodeficiency virus type 1 group M subtype B (isolate BRU/LAI)) + Virion infectivity factor (Human immunodeficiency virus type 1 group M subtype B (isolate PCV12)) + Virion infectivity factor (Human immunodeficiency virus type 1 group M subtype B (isolate HXB2)) + DNA dC->dU-editing enzyme APOBEC-3G (Homo sapiens) (UniProt P69720+P69721+P69722+P69723+Q9HC16)
- assay-remarks: HIV-1 Vif–A3G interaction blockers – biochemical, TR-FRET, GST-Vif 1-94, biotin-A3G peptide, dose response retest, primary screen (AID 1117319);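 further: Vif residues 1-94 fused to GST binding biotinylated APOBEC3G peptide 110-148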
- condition-details: TR-FRET GST-Vif / biotin-A3G peptide binding
pIC50: −log10 of the molar value. Inconclusive results are not listed.
# cutoff 5 applies to pIC50; >= gives t, < gives f

Solved entries (count: 4):
compound	label-value
Cc1oc(/N=C/c2cccc3ccccc23)c(C#N)c1C	f
CC(=O)OCCCNc1cc(Sc2nc3ccccc3s2)c2nonc2c1[N+](=O)[O-]	f
Cc1c(O)cc2c(c1O)C(=O)CC(c1ccc(O)cc1)O2 (stereo not given)	t
CCOC(=O)N1CC=C2C(C#N)=C(N)C(C#N)(C#N)[C@H](c3cccs3)[C@H]2C1	t

Is it the case that Cc1cc(C)cc(NC(=O)CSc2nc3c(c(=O)n2C)SC(C)C3)c1 (stereo not given) has pIC50 reaching or exceeding 5?
f

Determine whether measured pIC50 meets or exceeds 5 for Nc1ccccc1NC1=CC(=O)CC(c2ccco2)C1 (stereo not given)
f

Form field: pIC50 at least 5? Entry: COc1ccc(/C=N/NC(=O)c2cc(O)c(O)c(O)c2)cc1Cn1cc([N+](=O)[O-])cn1
t

Item O=C1C=C(c2c(O)ccc3ccccc23)c2ccccc2C1=O with pIC50 of 5 or above?
t

Check this compound for pIC50 at or above 5: CC1=CC(C)(C)N2C(=O)C(=Nc3ccc(O)cc3)c3cccc1c32
t

###

- subject-of-test: Virion infectivity factor (Human immunodeficiency virus type 1 group M subtype B (isolate BH10)) + Virion infectivity factor (Human immunodeficiency virus type 1 group M subtype B (isolate BRU/LAI)) + Virion infectivity factor (Human immunodeficiency virus type 1 group M subtype B (isolate PCV12)) + Virion infectivity factor (Human immunodeficiency virus type 1 group M subtype B (isolate HXB2)) + DNA dC->dU-editing enzyme APOBEC-3G (Homo sapiens) (UniProt P69720+P69721+P69722+P69723+Q9HC16)
- assay-remarks: HIV-1 Vif–A3G interaction blockers – biochemical, TR-FRET, GST-Vif 1-94, biotin-A3G peptide, dose response retest, primary screen (AID 1117319);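 further: Vif residues 1-94 fused to GST binding biotinylated APOBEC3G peptide 110-148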
- condition-details: TR-FRET GST-Vif / biotin-A3G peptide binding
pIC50: −log10 of the molar value. Results filed as inconclusive are left out.
Is pIC50 at least 5? Then criterion met. If not, criterion not met.

Worked cases, answers included:
molecule	label-value
Cc1cc(C(=O)CSc2nnnn2C)c(C)n1CCc1ccc(Cl)cc1	criterion not met
COc1cc(NCCCCCCN)c2ncccc2c1OC	criterion met

Reported pIC50 at or above 5? C=CCN=c1scc(C)n1/N=C/c1ccc(O)c(O)c1
criterion not met

Tell me whether pIC50 is at least 5 here: N=C1/C(=C\c2ccc(SCc3ccco3)o2)C(=O)N=C2SC=NN12
criterion met

Evaluate CN1CCc2cccc3c2[C@@H]1Cc1ccc(O)c(O)c1-3 : pIC50 at minimum 5?
criterion met

Form field: pIC50 at least 5? Entry: CCc1ccc(NC(=O)CCNS(=O)(=O)c2cccc3nonc23)cc1
criterion not met
